ASSAY SYSTEM: P-selectin (PS-Rg) (Homo sapiens, UniProt P16109 P16109:42-321)
Sequence (P16109 42-321, one chain of several): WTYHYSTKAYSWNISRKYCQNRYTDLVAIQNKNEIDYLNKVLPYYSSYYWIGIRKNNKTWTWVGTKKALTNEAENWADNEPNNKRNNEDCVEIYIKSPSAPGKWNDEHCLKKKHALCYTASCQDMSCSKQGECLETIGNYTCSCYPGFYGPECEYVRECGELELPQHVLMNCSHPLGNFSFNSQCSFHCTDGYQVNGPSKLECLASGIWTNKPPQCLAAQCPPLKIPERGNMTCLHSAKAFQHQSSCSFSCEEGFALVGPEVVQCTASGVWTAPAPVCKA
METHOD SUMMARY: filter; 37 C
CONDITION DESCRIPTION: tags: human IgG Fc fusion; chain copies: 2 (stated dimer)
Threshold-based label: Kd under 5 nM gives label 1, Kd not under 5 nM gives label 0.

BINDER: PA327 (ssRNA, 2'-NH2 C and U) RNA: GGGAGACAAGAAUAAACGCUCAAUAAGACAACGAACAGACAGAAGCGAAAAAGGGGCGCCGCAGCAACAACAAAUUCGACAGGAGGCUCACAACAGGC
CLASSIFICATION: label 0
//
BINDER: PA353 (ssRNA, 2'-NH2 C and U) RNA: GGGAGACAAGAAUAAACGCUCAAGUACCGGGAAGGGAUGAACUGGGAUAUGGGAACGGAGGUCAGAGGCACGAUUCGACAGGAGGCUCACAACAGGC
CLASSIFICATION: label 0
//
BINDER: PA301 (ssRNA, 2'-NH2 C and U) RNA: GGGAGACAAGAAUAAACGCUCAAACACAAAUCGGGCAGGGACUGGGUUGGGCACGGCAGGGCGCCUUCGACAGGAGGCUCACAACAGGC
CLASSIFICATION: label 1
//
BINDER: PA318 (ssRNA, 2'-NH2 C and U) RNA: GGGAGACAGAAUAAACGCUCAAAGACCAAGGGACAGCAGCGGGGAAAAACAGAUCACAGCUGUAAGAGGGCUUCGACAGGAGGCUCACAACAGGC
CLASSIFICATION: label 1
//
BINDER: PA319 (ssRNA, 2'-NH2 C and U [all C and U 2'-NH2]) RNA: GGGAGACAAGAAUAAACGCUCAAAGUCGGGGAUAGAAACACACUAAGAAGUGCAUCAGGUAGGAGAUAAUUCGACAGGAGGCUCACAACAGGC
CLASSIFICATION: label 0
//
BINDER: PA335 (ssRNA, 2'-NH2 C and U) RNA: GGGAGACAAGAAUAAACGCUCAAUGAUAUACACGUAAGCACUGAACCAGGCUGAGAUCCAUCAGUGCCCAGGUUCGACAGGAGGCUCACAACAGGC
CLASSIFICATION: label 0
//
BINDER: PA342 (ssRNA, 2'-NH2 C and U) RNA: GGGAGACAAGAAUAAACGCUCAACCAACGCGCACCCCGCAGCAAACGAAAUUGGGGAGACAGGUGCAAGACAGUUCGACAGGAGGCUCACAACAGGC
CLASSIFICATION: label 1
//
BINDER: PA329 (ssRNA, 2'-NH2 C and U) RNA: GGGAGACAAGAAUAAACGCUCAAGAAGGAUACUUAGGACUACGUGGGAUGGGAUGAAAUGGGAGAACGGGAGUUCGACAGGAGGCUCACAACAGGC
CLASSIFICATION: label 1
//
BINDER: PA352 (ssRNA, 2'-NH2 C and U) RNA: GGGAGACAAGAAUAAACGCUCAAGAUCAUCGCAGUAUCGGAAUCGACCCUCAGUGGGUGACAUGCGGACAAGUUCGACAGGAGGCUCACAACAGGC
CLASSIFICATION: label 0
//
BINDER: PA447 (ssRNA, 2'-NH2 C and U) RNA: GGGAGACAAGAAUAAACGCUCAAAACAGAACUGAUCGGCGCAGGUUGAUAAAGGGGCAGCGCGAAGAUCACAAUUCGACAGGAGGCUCACAACAGGC
CLASSIFICATION: label 0
//
BINDER: PA325 (ssRNA, 2'-NH2 C and U) RNA: GGGAGACAAGAAUAAACGCUCAAACGAGAGCACCAAGGCAACAGAUGCAGAAGAAGUGUGCGCGCGCGAAAUUCGACAGGAGGCUCACAACAGGC
CLASSIFICATION: label 0

These measurements were taken from patent US20030059769.
